assay explanation: Liver Microsome Stability Assay (human)
experimental conditions: human liver microsomes, with NADPH, 1.0 uM compound
observed property: Liver Microsome Stability (Multiple Species): Human - % Remaining after 30 min w/NADPH (%)

1. O=C(Nc1nc([C@H]2CCCN2c2ccc(OC3=CCNCC3)cc2)cs1)c1cccn1Cc1ccnc(F)c1 : 47
2. O=C(Nc1nc([C@H]2CCCN2c2ccccc2)cs1)c1cccn1CC1CCOCC1 : 26.7
3. O=C(Nc1nc([C@H]2CCCN2c2ccccc2)cs1)c1cccn1CC1CCCCC1 : 79.7

a = O=C(Nc1nc([C@H]2CCCN2c2ccc(CCO)cc2)cs1)c1cccn1Cc1ccnc(F)c1
b = O=C(Nc1nc([C@H]2CCCN2c2ccccc2)cs1)c1cccn1-c1cccc2cnccc12
Could you check which of a and b has a smaller value for Liver Microsome Stability (Multiple Species): Human - % Remaining after 30 min w/NADPH? Your answer should be the label of the entry you select.
b
(b: 0.86%, a: 6.01%)

a = O=C(O)c1ccc(N2CCC[C@@H]2c2csc(NC(=O)c3cccn3Cc3ccncc3)n2)cc1
b = CC(C)c1cc(/C=C/c2csc(NC(=O)c3cccn3Cc3ccnc(F)c3)n2)nn1C
c = COCc1ccc(N2CCC[C@@H]2c2csc(NC(=O)c3cccn3Cc3ccncc3)n2)cc1
d = O=C(Nc1nc([C@H]2CCCN2c2ccccc2)cs1)c1cccn1Cc1cccc(F)c1
Ranking field: Liver Microsome Stability (Multiple Species): Human - % Remaining after 30 min w/NADPH; order: falling. Form entry: labels listed in requested order.
d, c, a, b

1 = O=C(Nc1nc([C@H]2CCCN2c2ccc(C3CCNCC3)cc2)cs1)c1cccn1Cc1ccncc1
2 = O=C(NC1=NC(CCc2ccccc2)CS1)c1cccn1Cc1ccncc1 (stereo not drawn)
Larger number for Liver Microsome Stability (Multiple Species): Human - % Remaining after 30 min w/NADPH: 1 , or 2 ? Return value: the label identifying the chosen record.
1

----------
assay explanation: Liver Microsome Stability Assay (monkey)
experimental conditions: monkey liver microsomes, with NADPH, 1.0 uM compound
observed property: Liver Microsome Stability (Multiple Species): Monkey - % Remaining after 30 min w/NADPH (%)

Examples with their reported Liver Microsome Stability (Multiple Species): Monkey - % Remaining after 30 min w/NADPH follow.
1) CC(=O)N1CCC(Oc2ccc(N3CCC[C@@H]3c3csc(NC(=O)c4cccn4Cc4ccnc(F)c4)n3)cc2Cl)CC1 : 8.54
2) O=C(Nc1nc(C2C3CN(c4ccccc4)CC32)cs1)c1cccn1Cc1ccncc1 (centres unmarked) : 0.83
3) CC(C#N)n1cnc(/C=C/c2csc(NC(=O)c3cccn3Cc3ccnc(F)c3)n2)c1 (centres unmarked) : 0.33

1 = O=C(Nc1nc([C@H]2CCCN2c2ccccc2)cs1)c1cccn1Cc1cccc(Br)c1
2 = O=C(Nc1nc([C@H]2CCCN2c2ccccc2)cs1)c1cccn1CCCc1c[nH]nn1
For the pair 1 and 2 , which entry has the numerically smaller recorded Liver Microsome Stability (Multiple Species): Monkey - % Remaining after 30 min w/NADPH? // output: label of the selected item
2

----------
assay explanation: Liver Microsome Stability Assay (human)
experimental conditions: human liver microsomes, with NADPH, 1.0 uM compound
observed property: Liver Microsome Stability (Multiple Species): Human - % Remaining after 30 min w/NADPH (%)

1) O=C(Nc1nc(Cc2ccccn2)cs1)c1cccn1Cc1ccncc1 [Compound E11] : 0.97
2) O=C(Nc1nc(/C=C/c2cn(C3CCCCC3)cn2)cs1)c1cccn1Cc1ccnc(F)c1 [Compound B55] : 0.41

A = O=C(Nc1nc([C@H]2CCCN2c2ccc(-c3ncco3)cc2)cs1)c1cccn1Cc1ccncc1 [Compound A9]
B = CC1CCCc2c(/C=C/c3csc(NC(=O)c4cccn4Cc4ccnc(F)c4)n3)ncn21 (stereo not shown) [Compound B101]
Would you let me know which has the greater Liver Microsome Stability (Multiple Species): Human - % Remaining after 30 min w/NADPH value, A or B ? Pick one; state its label.
A

----------
assay explanation: Liver Microsome Stability Assay (human)
experimental conditions: human liver microsomes, with NADPH, 1.0 uM compound
observed property: Liver Microsome Stability (Multiple Species): Human - % Remaining after 30 min w/NADPH (%)

Some entries whose results are on file:
1) O=C(Nc1nc(/C=C/c2ncco2)cs1)c1cccn1Cc1ccncc1 : 0.75
2) CC(=O)N1CCC(O[C@@H]2C[C@H](c3csc(NC(=O)c4cccn4Cc4ccncc4)n3)N(c3ccccc3)C2)CC1 : 0.43
3) CNC(=O)N1CCC(Oc2ccc(N3CCC[C@@H]3c3csc(NC(=O)c4cccn4Cc4ccnc(F)c4)n3)cc2)CC1 : 15.6

A = CC(CC#N)Cn1cccc1C(=O)Nc1nc([C@H]2CCCN2c2ccccc2)cs1 (stereo partly shown)
B = COC(=O)Cn1cnc(/C=C/c2csc(NC(=O)c3cccn3Cc3ccnc(F)c3)n2)c1C
C = CC(=O)N1CCC(Oc2ccc(N3CCC[C@@H]3c3csc(NC(=O)c4cccn4Cc4ccncc4)n3)cc2)CC1
D = CC(=O)N1CCC(Cc2ccc(N3CCC[C@@H]3c3csc(NC(=O)c4cccn4Cc4ccnc(F)c4)n3)cc2)CC1
E = O=C(Nc1ccc(N2CCC[C@@H]2c2csc(NC(=O)c3cccn3Cc3ccnc(F)c3)n2)cc1)O[C@@H]1CCOC1
Sort ascending by Liver Microsome Stability (Multiple Species): Human - % Remaining after 30 min w/NADPH. Your task in answering is to list the labels in the requested order.
B, D, C, A, E

A = NS(=O)(=O)N1CC(Oc2ccc(N3CCC[C@@H]3c3csc(NC(=O)c4cccn4Cc4ccnc(F)c4)n3)cc2)C1
B = NC(=O)Nc1ccc(N2CCC[C@@H]2c2csc(NC(=O)c3cccn3Cc3ccnc(F)c3)n2)cc1
C = CC(C)c1c(/C=C/c2csc(NC(=O)c3cccn3Cc3ccncc3)n2)ncn1C
Please rank these compounds by Liver Microsome Stability (Multiple Species): Human - % Remaining after 30 min w/NADPH in descending order. Reply format: the labels, ordered as requested.
B, A, C
(B: 49.3%, A: 17.4%, C: 1.26%)

A = CC(=O)N1CCC(Oc2ccc(N3CCC[C@@H]3c3csc(NC(=O)c4cccn4CC4CCOCC4)n3)cc2)CC1
B = NC(=O)c1ccc(N2CCC[C@@H]2c2csc(NC(=O)c3cccn3CC3CCOCC3)n2)cc1
Return label of the item with the larger Liver Microsome Stability (Multiple Species): Human - % Remaining after 30 min w/NADPH. Candidates: A , B . Give the chosen item's label as your response.
A

----------
Let's look at some compounds and their measured IC50.
Test system: TNFα-FL/Gaussia Luciferase
assay explanation: Dox Induced TNFα-FL-Gluc Assay
Assay type: cell-based
experimental conditions: 24 hr Dox induction; 293FRT/TO cells; read-out: 24 hr Dox Inducible TNFaFLGluc 293FRT/TO: Mean IC50

Value of measured IC50 for the entry CCn1cnc(/C=C/c2csc(NC(=O)c3cccn3Cc3ccnc(F)c3)n2)c1 : > 25 µM

The compound CC1CCCn2cnc(/C=C/c3csc(NC(=O)c4cccn4Cc4ccnc(F)c4)n3)c21 (stereo not drawn) showed IC50 equal to > 25 µM

Given item O=C(Nc1nc(/C=C/c2cn(Cc3ccccc3)cn2)cs1)c1cccn1Cc1ccnc(F)c1 , the value recorded as its IC50 is > 25 µM

Just so you know, measured IC50 for CC(C#N)n1cnc(/C=C/c2csc(NC(=O)c3cccn3Cc3ccnc(F)c3)n2)c1 (stereo not drawn) came out at > 25 µM

Record CC(C)n1cnc(-c2cccc(-c3csc(NC(=O)c4cccn4Cc4ccnc(F)c4)n3)c2)c1 , field IC50: > 25 µM

Record CC(=O)NCc1ccc(N2CCC[C@@H]2c2csc(NC(=O)c3cccn3Cc3ccncc3)n2)cc1 , field IC50: 0.22 µM

----------
Test system: TNFα-FL/Gaussia Luciferase
assay explanation: Dox Induced TNFα-FL-Gluc Assay
Assay type: cell-based
experimental conditions: 24 hr Dox induction; 293FRT/TO cells; read-out: 24 hr Dox Inducible TNFaFLGluc 293FRT/TO: Mean IC50
observed property: IC50 (µM)

Please review the entries below; each comes with its answer.
1) NC(=O)N1CCC(Oc2ccc(N3CCC[C@@H]3c3csc(NC(=O)c4cccn4Cc4ccnc(F)c4)n3)nc2)CC1 [Compound A156] : 1.56
2) O=C(Nc1nc([C@H]2CCCN2c2ccc(OC3CSC3)cc2)cs1)c1cccn1Cc1ccnc(F)c1 [Compound A157] : 0.407
3) Cc1cnccc1Cn1cccc1C(=O)Nc1nc([C@H]2CCCN2c2ccccc2)cs1 [Compound A53] : 0.301
4) O=C(Nc1nc(/C=C/c2cn(C3CCCCC3)cn2)cs1)c1cccn1Cc1ccnc(F)c1 [Compound B55] : 6.62

1 = [2H]c1c([2H])c([2H])c(N2CCC[C@@H]2c2csc(NC(=O)c3cccn3Cc3ccnc(F)c3)n2)c([2H])c1[2H] [Compound A94]
2 = COC(=O)Nc1ccc(N2CCC[C@@H]2c2csc(NC(=O)c3cccn3Cc3ccnc(F)c3)n2)nc1 [Compound A175]
3 = CC(=O)N1CCC(Oc2ccc(N3CCC[C@@H]3c3csc(NC(=O)c4cc(C)cn4Cc4ccnc(F)c4)n3)cc2)CC1 [Compound A165]
4 = CC(=O)N1CC=C(Oc2ccc(N3CCC[C@@H]3c3csc(NC(=O)c4cccn4Cc4ccnc(F)c4)n3)cc2)CC1 [Compound A82]
Sort the 4 compounds by IC50; largest first, smallest last. Returns: the labels arranged in the requested order.
4, 3, 1, 2

Data origin, for the record: patent US20230286973A1
